- System: E. coli DH5α
- MEASUREMENT_DESCRIPTION: Antibacterial activity: MIC and growth curve against E. coli DH5α in 96-well plate
- Format: cell-based
- CONDITION_DESCRIPTION: minimal inhibitory concentration against E. coli DH5α; 96-well plate, 5×10^5 CFU/mL, 37° C., judged after 8 h
Could you please report measured MIC for the items listed next?

SUBSTANCE: PRT1099 (PSTVCGNEKTNLTCYNGGNCTEFQTELKCMCRPGFTGEWCE; listed as Homo sapiens)
ASSAYED_SYSTEM: E. coli DH5α
READING: 12.5 µg/mL

SUBSTANCE: PRT119 (CAPCPNNGRPTLSGTECLCVCQSGTYGENCE; listed as Homo sapiens)
ASSAYED_SYSTEM: E. coli DH5α
READING: 12.5 µg/mL

SUBSTANCE: PRT991 (RGLLCGSFPEPCANGGTCLSLSLGQGTCQCAPGFLGETCQ; listed as Homo sapiens)
ASSAYED_SYSTEM: E. coli DH5α
READING: 50 µg/mL

SUBSTANCE: PRT590 (CDCNILGSRRDMPCDEESGRCLCLPNVVGPKCDQCAPYHWKLASGQGCEP; listed as Homo sapiens)
ASSAYED_SYSTEM: E. coli DH5α
READING: 50 µg/mL

SUBSTANCE: PRT1189 (ECVPYPGCVHGSCVEPWQCNCETNWGGLLCD; listed as Homo sapiens)
ASSAYED_SYSTEM: E. coli DH5α
READING: 50 µg/mL

SUBSTANCE: PRT763 (ALDRCALNTHGCEHICVNDRSGSYHCECYEGYTLNEDRKTCS; listed as Homo sapiens)
ASSAYED_SYSTEM: E. coli DH5α
READING: 25 µg/mL

For every listed record, write down its MIC.
1. PRT1262 (DVDECSMSNGSCDQGCVNTKGSYECVCPPGRRLHWNGKDCV; listed as Homo sapiens)
2. PRT1246 (CKELCSCHPHGQCEDVTGQCTCHARRWGARCE; listed as Homo sapiens)
3. PRT1013 (LEDPCPPSFCSKRGRCHIQASGRPQCSCMPGWTGEQCQ; listed as Homo sapiens)
4. PRT46 (CQCNGHSTCINNNVCEQCKNLTTGKQCQDCMPGYYGDPTNGGQCTA; listed as Homo sapiens)
5. PRT1214 (GRENCTFAPCLEGGTCILSPKGASCNCPHPYTGDRCE; listed as Homo sapiens)
6. PRT90 (CDCYPVGSTSRSCAPHSGQCPCRPGALGRQCNSCDSPFAEVTASGCRV; listed as Homo sapiens)
7. PRT1360 (NKPLCLNNCYNRGRCVENECVCDEGFTGEDCS; listed as Homo sapiens)

Key:
1: 12.5 µg/mL; 2: 50 µg/mL; 3: 12.5 µg/mL; 4: 25 µg/mL; 5: 25 µg/mL; 6: 50 µg/mL; 7: 12.5 µg/mL

For every listed record, write down its MIC.
1. PRT962 (NVDDCSPDPCHHGRCVDGIASFSCACAPGYTGTRCE; listed as Homo sapiens)
2. PRT905 (DVNECDSQPCLHGGTCQDGCGSYRCTCPQGYTGPNCQ; listed as Homo sapiens)
3. PRT101 (DVDECSSGQHQCDSSTVCFNTVGSYSCRCRPGWKPRHGIPNNQKDTVCE; listed as Homo sapiens)

Key:
["25 µg/mL", "25 µg/mL", "25 µg/mL"]
